assayed.target: hFASN enzyme (full length) (Homo sapiens)
Construct: 10 μL hFASN enzyme (full length, 300 ng, purified in house); made in house
assay.overview: Fatty Acid Synthase (FASN) inhibition scintillation proximity assay
Assay type: biochemical
study.conditions: read-out: Human FASN % inhibition @ 10 μM, 10 μM test compound
Procedure: In this assay, inhibition of FASN activity is measured using ^3H-acetyl-CoA and malonyl-CoA as substrates. ^3H-Acetyl CoA is converted to ^3H-palmitate through a series of reactions by the FASN protein, which contains 7 functional domains and carries out 7 enzymatic reactions to ultimately produce ^3H-palmitate. The assay principle is based upon the fact that ^3H-acetyl-CoA is hydrophilic and the end product, ^3H-palmitate is hydrophobic. […]
measured.property: inhibition at 10 µM (%)
Answer with a number only, understood to be in %.

// below: answered compounds
Cn1cc(-c2ccc(-c3ccc(C4=NC5(CC5)C(=O)N4C[C@@H]4CCCN(C(=O)C5CC5)C4)cc3)cc2)cn1: 31
Cc1cn(C)c2ccc(-c3ccc(C4=NC5(CC5)C(=O)N4CC4CN(C(=O)C5CC5)C4)c(F)c3)cc12: 88
Cn1cc(-c2ccc(C3=NC4(CCCC4)C(=O)N3C[C@@H]3CCN(C(=O)C4CC4)C3)cc2)cn1: 29.7

Moving on to another compound below.
// recorded inhibition at 10 µM for O=C1N(C[C@@H]2CCN(S(=O)(=O)N3CCCC3)C2)C(c2ccc(-c3ccc4occc4c3)cc2)=NC12CCCC2 : 16.7

###

Documented IC50 across a set of molecules
assayed.target: hFASN enzyme (full length) (Homo sapiens, UniProt P49327)
Construct: 10 μL hFASN enzyme (full length, 300 ng, purified in house); made in house
Sequence (P49327 whole entry): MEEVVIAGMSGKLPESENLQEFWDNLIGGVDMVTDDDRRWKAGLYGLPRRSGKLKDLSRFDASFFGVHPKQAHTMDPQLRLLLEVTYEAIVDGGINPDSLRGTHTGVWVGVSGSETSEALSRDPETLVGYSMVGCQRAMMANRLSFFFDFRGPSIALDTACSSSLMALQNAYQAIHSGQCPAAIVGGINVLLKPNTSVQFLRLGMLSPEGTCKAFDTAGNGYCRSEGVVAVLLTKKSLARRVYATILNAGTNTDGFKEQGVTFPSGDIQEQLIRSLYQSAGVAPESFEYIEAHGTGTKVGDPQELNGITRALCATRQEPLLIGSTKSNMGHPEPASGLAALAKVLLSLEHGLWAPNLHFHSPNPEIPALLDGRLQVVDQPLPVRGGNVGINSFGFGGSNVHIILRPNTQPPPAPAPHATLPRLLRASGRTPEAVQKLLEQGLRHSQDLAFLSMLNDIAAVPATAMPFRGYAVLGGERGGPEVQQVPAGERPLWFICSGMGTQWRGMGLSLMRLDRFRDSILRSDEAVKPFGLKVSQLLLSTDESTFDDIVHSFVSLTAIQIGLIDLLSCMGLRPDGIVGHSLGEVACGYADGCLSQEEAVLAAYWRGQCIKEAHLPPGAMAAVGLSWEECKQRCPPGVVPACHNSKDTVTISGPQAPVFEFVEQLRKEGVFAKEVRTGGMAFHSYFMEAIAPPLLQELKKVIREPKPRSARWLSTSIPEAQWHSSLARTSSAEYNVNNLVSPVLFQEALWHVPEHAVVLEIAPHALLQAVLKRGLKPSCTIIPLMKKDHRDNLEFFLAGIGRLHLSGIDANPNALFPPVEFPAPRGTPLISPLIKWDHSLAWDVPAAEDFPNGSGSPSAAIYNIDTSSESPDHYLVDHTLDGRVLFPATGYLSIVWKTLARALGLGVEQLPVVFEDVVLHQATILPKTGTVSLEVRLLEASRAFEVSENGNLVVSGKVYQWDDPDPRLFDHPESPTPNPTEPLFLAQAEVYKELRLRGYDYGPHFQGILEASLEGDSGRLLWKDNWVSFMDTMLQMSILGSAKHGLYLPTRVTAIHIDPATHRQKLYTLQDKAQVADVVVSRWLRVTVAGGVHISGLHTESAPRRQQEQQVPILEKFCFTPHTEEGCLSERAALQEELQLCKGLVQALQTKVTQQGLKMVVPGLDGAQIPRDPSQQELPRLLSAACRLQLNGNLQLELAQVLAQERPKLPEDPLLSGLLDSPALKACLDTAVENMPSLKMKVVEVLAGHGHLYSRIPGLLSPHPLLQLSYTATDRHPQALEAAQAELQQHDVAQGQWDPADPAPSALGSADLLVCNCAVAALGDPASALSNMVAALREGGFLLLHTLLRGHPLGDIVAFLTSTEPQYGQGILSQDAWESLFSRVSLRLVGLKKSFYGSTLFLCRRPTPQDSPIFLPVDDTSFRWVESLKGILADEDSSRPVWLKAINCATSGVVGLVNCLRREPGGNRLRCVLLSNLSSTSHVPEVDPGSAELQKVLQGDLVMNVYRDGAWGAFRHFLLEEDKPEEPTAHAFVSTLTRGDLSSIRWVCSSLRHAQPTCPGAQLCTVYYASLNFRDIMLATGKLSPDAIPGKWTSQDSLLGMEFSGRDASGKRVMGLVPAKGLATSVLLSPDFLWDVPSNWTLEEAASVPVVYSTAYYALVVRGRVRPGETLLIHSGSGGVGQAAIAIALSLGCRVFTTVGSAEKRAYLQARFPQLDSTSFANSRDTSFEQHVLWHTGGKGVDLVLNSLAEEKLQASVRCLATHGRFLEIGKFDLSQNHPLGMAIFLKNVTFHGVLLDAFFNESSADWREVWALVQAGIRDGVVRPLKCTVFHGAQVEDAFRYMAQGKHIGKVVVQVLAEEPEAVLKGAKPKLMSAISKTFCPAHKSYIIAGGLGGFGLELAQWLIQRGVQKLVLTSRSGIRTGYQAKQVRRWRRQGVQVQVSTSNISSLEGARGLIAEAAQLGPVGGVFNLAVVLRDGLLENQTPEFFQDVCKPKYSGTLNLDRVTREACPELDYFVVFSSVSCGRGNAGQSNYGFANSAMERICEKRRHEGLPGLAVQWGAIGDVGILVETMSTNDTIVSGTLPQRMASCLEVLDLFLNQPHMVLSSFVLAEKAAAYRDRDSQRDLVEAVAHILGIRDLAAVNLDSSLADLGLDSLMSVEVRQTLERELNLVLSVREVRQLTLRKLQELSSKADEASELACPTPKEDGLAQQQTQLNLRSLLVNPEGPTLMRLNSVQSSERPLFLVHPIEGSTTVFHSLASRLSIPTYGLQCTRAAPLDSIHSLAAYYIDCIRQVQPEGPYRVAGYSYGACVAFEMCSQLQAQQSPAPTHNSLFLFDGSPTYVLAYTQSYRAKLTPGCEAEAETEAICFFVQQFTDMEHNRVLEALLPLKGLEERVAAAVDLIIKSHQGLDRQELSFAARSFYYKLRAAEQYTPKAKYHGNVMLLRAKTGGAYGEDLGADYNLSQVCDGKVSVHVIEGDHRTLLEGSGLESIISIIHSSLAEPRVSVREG
assay.overview: Fatty Acid Synthase (FASN) inhibition scintillation proximity assay
Type: biochemical
study.conditions: read-out: Human FASN pIC50 (converted)
Answer with a number only, understood to be in µM.

// below: answered molecules
CC(=O)c1ccc(-c2ccc(C3=NC4(CCCC4)C(=O)N3C[C@@H]3CCN(C(=O)C4CC4)C3)c(F)c2)cc1: 1.91
O=C(C1CC1)N1CC[C@@H](CN2C(=O)C3(CCCC3)N=C2c2ccc(-c3ccc(Cl)cc3)cc2F)C1: 0.0912
Cc1cc(-c2ccc3oc(C#N)cc3c2)ccc1C1=NC2(CC2)C(=O)N1C[C@@H]1CCN(C(=O)C2CC2)C1: 0.0631

// recorded IC50 for Cn1cc(-c2ccc(-c3ccc(C4=NC5(CC5)C(=O)N4C[C@@H]4CCN(C(=O)C5(O)CC5)C4)c(F)c3)cc2)cn1 : 0.02

// recorded IC50 for COC(=O)N1CC[C@@H](CN2C(=O)C3(CCOCC3)N=C2c2ccc(-c3ccc4cccnc4c3)cc2)C1 : 3.72

// recorded IC50 for CC(O)C(=O)N1CC(CN2C(=O)C3(CCOC3)N=C2c2ccc(-c3ccc4occc4c3)cc2)C1 (stereo not drawn) : 3.89

###

assayed.target: hFASN enzyme (full length) (Homo sapiens)
Construct: 10 μL hFASN enzyme (full length, 300 ng, purified in house); made in house
assay.overview: Fatty Acid Synthase (FASN) inhibition scintillation proximity assay
Format: biochemical
study.conditions: read-out: Human FASN % inhibition @ 10 μM, 10 μM test compound
measured.property: inhibition at 10 µM (%)
Answer with a number only, understood to be in %.

// below: answered molecules
COC(=O)N1CCC2(CC1)N=C(c1ccc(-c3ccc4[nH]ccc4c3)cc1)N(C[C@@H]1CCN(C(=O)C3CC3)C1)C2=O: 113
COC(=O)N1CC2(C1)N=C(c1ccc(-c3ccc(-c4cnn(C)c4)cc3)cc1)N(C[C@@H]1CCN(C(=O)C3CC3)C1)C2=O: 93

Moving on to another molecule below.
// recorded inhibition at 10 µM for O=C(C1CC1)N1CC(CN2C(=O)C3(CC3)N=C2c2ccc(-c3cnc4c(F)cccc4c3)cc2)C1 : 68

Data origin, for the record: patent US10077261B2
